measurement description: qHTS for Inhibitors of the Functional Ribonucleoprotein Complex (vRNP) of Lassa (LASV) Arenavirus: LASV Primary Screen - GLuc reporter signal (AID 1347082); note: nearly all actives have a fitted effect of over 60% in size
recorded conditions: LASV minigenome vRNP, Gaussia luciferase reporter; series mostly up to 57.5 µM
Results filed as inconclusive are left out. Activity calls are given as the source filed them. Calls come from the whole dose curve; tested in HEK293 reporter line.
readout label: outcome

Example cases with answers are listed next.
C[C@@H]1C(=O)CC2C(C)(C)CCC[C@]2(C)[C@@]1(O)CCc1ccoc1 (stereo partly specified)	inactive
O=C(O)CCc1ccccc1	inactive
CC(C)c1ccc(C=O)cc1	inactive
CC(C)CC(=O)[C@@H](O)Cc1ccc(O)cc1	inactive
Cn1c(=O)c2[nH]c(=O)[nH]c2n(C)c1=O	inactive

Any idea what outcome was measured for COc1ccc([C@@H]2CC(=O)c3c(O)cc(O[C@@H]4O[C@H](CO)[C@@H](O)[C@H](O)[C@H]4OC4O[C@@H](C)[C@H](O)[C@@H](O)[C@H]4O)cc3O2)cc1O (stereo partly specified) ?
inactive

Any idea what outcome was measured for COC(=O)[C@H]1[C@H]2C[C@H]3c4[nH]c5ccccc5c4CCN3C[C@H]2CC[C@@H]1O ?
inactive

Values from PubChem BioAssay (NCATS)
